- Test system: TNFα (UniProt P01375 77-233)
- Sequence (P01375 77-233 limits assumed): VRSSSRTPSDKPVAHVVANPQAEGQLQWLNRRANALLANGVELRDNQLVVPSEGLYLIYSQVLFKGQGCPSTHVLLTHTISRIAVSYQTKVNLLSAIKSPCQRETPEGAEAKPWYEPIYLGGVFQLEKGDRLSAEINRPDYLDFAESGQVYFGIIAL
- Protocol notes: SPR (Biacore), TNFα on CM5 chip, Fab injected; mean of two runs ± SD
Readout label: pKd
# reply with the number alone; pKd is -log10 of concentration in mol/L

Binder	Readout label	Observed measurement
Anti-TNFα H1.101L1.33 (Fab, V domains shown, Fab format) VH: EVQLVESGGGLVQPGGSLKLSCAASGFIFSNHWMNWVRQASGKGLEWVGEIRSKAINYATHYAESVKGRFTISRDDSKSTAYLQMNSLKTEDTAVYYCSRNYYGSTYDYWGQGTLVTVSS VL: EIVLTQSPDFQSVTPKEKVTITCRASQFIGSSLHWYQQKPDQSPKLLIKYASESFSGVPSRFSGSGSGTDFTLTINSLEAEDAATYYCQQSHSWPFTFGSGTKLEIK	pKd	8.41
Anti-TNFα H1.45L1.33 (Fab, V domains shown, Fab format) VH: EVQLVESGGGLVQPGGSLKLSCAASGFIFSNHWMNWVRQASGKGLEWVGEIRSKAINYATHYAESVKGRFTISRDDSKSIVYLQMNSLKTEDTAVYYCSRNYYGSTYDYWGQGTLVTVSS VL: EIVLTQSPDFQSVTPKEKVTITCRASQFIGSSLHWYQQKPDQSPKLLIKYASESFSGVPSRFSGSGSGTDFTLTINSLEAEDAATYYCQQSHSWPFTFGSGTKLEIK	pKd	8.74

Consider now this further binder.
Challenge: Name the reported pKd value associated with the binder Anti-TNFα H1.103L1.33 (Fab, V domains shown, Fab format; It has thirteen more mutations than anti-TNFα H1L1; also called anti-TNF H1.103L1.33) VH: EVQLVESGGGLVQPGGSLKLSCAASGFIFSNHWMNWVRQASGKGLEWVGEIRSKANNYATHYAASVKGRFTISRDDSKNTAYLQMNSLKTEDTAVYYCSRNYYGSTYDYWGQGTLVTVSS VL: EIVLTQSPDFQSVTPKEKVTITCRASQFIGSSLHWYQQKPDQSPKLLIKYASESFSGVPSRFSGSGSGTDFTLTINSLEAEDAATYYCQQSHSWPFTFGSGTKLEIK
Response given: 8.51
